tested on: CCRF-CEM; assay: Growth inhibition of human CCRF-CEM cells at 10 uM after 48 hrs by coulter counter method; type: functional; conditions: read-out: GI
Recorded inhibition of growth at 10 µM values for a group of molecules are listed next.

Molecule	inhibition of growth at 10 µM
O=C1CN2N=C(c3ccc(Cl)cc3)SC2=N1	62.5%
O=C(CCN1CCCCC1)Nc1nnc(-c2ccc(Cl)cc2)s1	< 10%
NC1=CC(N)=NC2SC(c3ccc(Cl)cc3)=NN12 (stereo not drawn)	< 10%
O=C1N=C2OC(c3ccccc3)=NN2C1=O	< 10%
O=C1N=C2SC(c3ccccc3)=NN2C1=O	< 10%
O=C1N=C2OC(c3ccc(Cl)cc3)=NN2C1=O	< 10%
O=C1CN2N=C(c3ccccc3)OC2=N1	< 10%
NC1=CC(N)=NC2OC(c3ccc(Cl)cc3)=NN12 (stereo not drawn)	< 10%
O=C1CN2N=C(c3ccc(Cl)cc3)OC2=N1	< 10%
NC1=CC(N)=NC2SC(c3ccccc3)=NN12 (stereo not drawn)	< 10%
O=C1N=C2SC(c3ccc(Cl)cc3)=NN2C1=O	< 10%
O=C1CN2N=C(c3ccccc3)SC2=N1	88.2%
NC1=CC(N)=NC2OC(c3ccccc3)=NN12 (stereo not drawn)	< 10%

###

tested on: SN12C; assay: Growth inhibition of human SN12C cells at 10 uM after 48 hrs by coulter counter method; type: functional; conditions: read-out: GI

Molecule	Measured On	inhibition of growth at 10 µM
O=C1CN2N=C(c3ccc(Cl)cc3)SC2=N1	SN12C	20.1%
NC1=CC(N)=NC2OC(c3ccc(Cl)cc3)=NN12 (stereo unspecified)	SN12C	< 10%
O=C1CN2N=C(c3ccccc3)OC2=N1	SN12C	< 10%
NC1=CC(N)=NC2SC(c3ccccc3)=NN12 (stereo unspecified)	SN12C	< 10%
O=C1N=C2OC(c3ccccc3)=NN2C1=O	SN12C	< 10%
O=C1N=C2SC(c3ccc(Cl)cc3)=NN2C1=O	SN12C	< 10%

###

Listed here: items and their measured inhibition of growth at 10 µM.
system: A498; test: Growth inhibition of human A498 cells at 10 uM after 48 hrs by coulter counter method; format: functional; details: A498, 48 h, read-out: GI

Compound	inhibition of growth at 10 µM
NC1=CC(N)=NC2OC(c3ccc(Cl)cc3)=NN12 (configuration not stated)	< 10%
O=C1CN2N=C(c3ccccc3)OC2=N1	10.9%
O=C1CN2N=C(c3ccc(Cl)cc3)OC2=N1	< 10%
O=C1CN2N=C(c3ccc(Cl)cc3)SC2=N1	< 10%
O=C1N=C2OC(c3ccc(Cl)cc3)=NN2C1=O	< 10%
O=C1N=C2OC(c3ccccc3)=NN2C1=O	< 10%
O=C1N=C2SC(c3ccccc3)=NN2C1=O	< 10%
O=C1N=C2SC(c3ccc(Cl)cc3)=NN2C1=O	< 10%
O=C(CCN1CCCCC1)Nc1nnc(-c2ccc(Cl)cc2)s1	11.6%
NC1=CC(N)=NC2OC(c3ccccc3)=NN12 (configuration not stated)	< 10%
NC1=CC(N)=NC2SC(c3ccccc3)=NN12 (configuration not stated)	< 10%
NC1=CC(N)=NC2SC(c3ccc(Cl)cc3)=NN12 (configuration not stated)	< 10%

###

Collected inhibition of growth at 10 µM values appear next to each entry.
system: OVCAR-8; assay: Growth inhibition of human OVCAR8 cells at 10 uM after 48 hrs by coulter counter method; format: functional; conditions: OVCAR-8, 48 h, read-out: GI

Compound	inhibition of growth at 10 µM
O=C1CN2N=C(c3ccccc3)OC2=N1	< 10%
O=C1CN2N=C(c3ccc(Cl)cc3)SC2=N1	39.8%
O=C1N=C2SC(c3ccccc3)=NN2C1=O	< 10%
NC1=CC(N)=NC2OC(c3ccc(Cl)cc3)=NN12 (stereo unspecified)	< 10%
O=C(CCN1CCCCC1)Nc1nnc(-c2ccc(Cl)cc2)s1	< 10%
O=C1N=C2OC(c3ccc(Cl)cc3)=NN2C1=O	< 10%
